target: NTR1 (Homo sapiens, UniProt P30989); construct: endogenous in cells; host or cells: PC3 cells (ATCC); assay: ^125I-NT binding to PC3 cells; conditions: LOX blockers
Sequence (P30989 whole entry): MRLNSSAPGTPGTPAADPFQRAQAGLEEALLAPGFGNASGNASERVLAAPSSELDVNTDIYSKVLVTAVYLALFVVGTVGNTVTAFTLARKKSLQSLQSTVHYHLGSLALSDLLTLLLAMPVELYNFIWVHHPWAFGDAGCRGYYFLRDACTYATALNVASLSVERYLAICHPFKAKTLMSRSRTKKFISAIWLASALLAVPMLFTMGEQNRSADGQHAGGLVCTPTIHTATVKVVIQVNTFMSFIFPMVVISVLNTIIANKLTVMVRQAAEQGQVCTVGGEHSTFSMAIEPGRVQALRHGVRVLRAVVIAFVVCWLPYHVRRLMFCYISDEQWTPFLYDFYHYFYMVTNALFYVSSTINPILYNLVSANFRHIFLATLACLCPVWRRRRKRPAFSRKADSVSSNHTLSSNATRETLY
NT Binding Efficacy % increase less than 200 % increase is condition met; NT Binding Efficacy % increase greater than or equal to 200 % increase is condition not met.

INSERT INTO measurements (compound, label_class) VALUES
  ('CC1=C(C)C(=O)C(CCCCC#CCCCC#CCO)=C(C)C1=O', 'condition met'),
  ('CC1=C(/C=C/C(C)=C/C=C/C(C)=C/C(=O)O)C(C)(C)CCC1', 'condition met'),
  ('O=C(/C=C/c1ccc(O)c(O)c1)OCCc1ccccc1', 'condition not met'),
  ('CCCCCC#CCC#CCC#CCC#CCCCC(=O)O', 'condition met'),
  ('CC(C)c1ccc2c(c1)c(SC(C)(C)C)c(CC(C)(C)C(=O)O)n2Cc1ccc(Cl)cc1', 'condition not met');

Query block: For this compound, is NT Binding Efficacy % increase lower than 200 % increase? CC(Cc1ccc(O)c(O)c1)C(C)Cc1ccc(O)c(O)c1 (stereo not shown) [NDGA, Nordihydroguaiaretic acid]
Result block: condition not met

Query block: For this compound, is NT Binding Efficacy % increase lower than 200 % increase? "CCCc1c(OCCCCc2nnn[nH]2)ccc(C(C)=O)c1O"
Result block: condition met

* * *

molecular target: NTR1 (Homo sapiens, UniProt P30989); construct: endogenous in cells; host or cells: PC3 cells (ATCC); experiment: ^125I-NT binding to PC3 cells; details: [agent] giving 100% increase in NT binding
measured-endpoint: pEC50
pEC50 (log units): -log10 of the concentration in mol/L.

// solved cases for pEC50 follow
INSERT INTO assay_data (compound, measured_endpoint, number) VALUES
  ('CC(Cc1ccc(O)c(O)c1)C(C)Cc1ccc(O)c(O)c1 (stereo not drawn) [NDGA, Nordihydroguaiaretic acid]', 'pEC50', 4.80),
  ('CCCCCC#CCC#CCC#CCC#CCCCC(=O)O', 'pEC50', 4.30),
  ('CCCc1c(OCCCCc2nnn[nH]2)ccc(C(C)=O)c1O', 'pEC50', 4.47),
  ('CCCCCC(O)c1cccc(OCc2ccc3ccccc3n2)c1 (stereo not drawn)', 'pEC50', 4.72),
  ('CC(C)c1ccc2c(c1)c(SC(C)(C)C)c(CC(C)(C)C(=O)O)n2Cc1ccc(Cl)cc1', 'pEC50', 4.74);

We now examine a further compound.
Query block: Please report the recorded pEC50 for "CCNC(=O)[C@H]1O[C@@H](n2cnc3c(N)nc(NCCc4ccc(CCC(=O)O)cc4)nc32)[C@H](O)[C@@H]1O" .
Result block: 4.66

* * *

biological target: NTR1 (Homo sapiens); construct: endogenous in cells; host or cells: PC3 cells (ATCC); assay: ^125I-NT binding to PC3 cells; details: [agent] giving 75% increase in NT binding
EC50 overview
Just the number please, in µM, no unit attached.

INSERT INTO assay_data (compound, measured_endpoint, unit_of_measurement, number) VALUES
  ('COc1ccc(O)c(C(C)(C)C)c1 [BHA, butylated hydroxy anisole]', 'EC50', 'µM', 110);

Query block: Please report the recorded EC50 for "O=c1cc(-c2ccc(O)c(O)c2)oc2cc(O)cc(O)c12" .
Result block: 40

Query block: Please report the recorded EC50 for "COC(=O)c1c(C)[nH]c(C)c1C(=O)c1ccccc1Cc1ccccc1" .
Result block: 29

Query block: Please report the recorded EC50 for COC(=O)C1=C(C)NC(C)=C([N+](=O)[O-])C1c1ccccc1C(F)(F)F (stereo not shown) .
Result block: 16
